Target: T1, EsCas13d, nuclease-dead (Eubacterium siraeum, UniProt B0MS50, R295A;H300A;R849A;H854A)
T1 sequence: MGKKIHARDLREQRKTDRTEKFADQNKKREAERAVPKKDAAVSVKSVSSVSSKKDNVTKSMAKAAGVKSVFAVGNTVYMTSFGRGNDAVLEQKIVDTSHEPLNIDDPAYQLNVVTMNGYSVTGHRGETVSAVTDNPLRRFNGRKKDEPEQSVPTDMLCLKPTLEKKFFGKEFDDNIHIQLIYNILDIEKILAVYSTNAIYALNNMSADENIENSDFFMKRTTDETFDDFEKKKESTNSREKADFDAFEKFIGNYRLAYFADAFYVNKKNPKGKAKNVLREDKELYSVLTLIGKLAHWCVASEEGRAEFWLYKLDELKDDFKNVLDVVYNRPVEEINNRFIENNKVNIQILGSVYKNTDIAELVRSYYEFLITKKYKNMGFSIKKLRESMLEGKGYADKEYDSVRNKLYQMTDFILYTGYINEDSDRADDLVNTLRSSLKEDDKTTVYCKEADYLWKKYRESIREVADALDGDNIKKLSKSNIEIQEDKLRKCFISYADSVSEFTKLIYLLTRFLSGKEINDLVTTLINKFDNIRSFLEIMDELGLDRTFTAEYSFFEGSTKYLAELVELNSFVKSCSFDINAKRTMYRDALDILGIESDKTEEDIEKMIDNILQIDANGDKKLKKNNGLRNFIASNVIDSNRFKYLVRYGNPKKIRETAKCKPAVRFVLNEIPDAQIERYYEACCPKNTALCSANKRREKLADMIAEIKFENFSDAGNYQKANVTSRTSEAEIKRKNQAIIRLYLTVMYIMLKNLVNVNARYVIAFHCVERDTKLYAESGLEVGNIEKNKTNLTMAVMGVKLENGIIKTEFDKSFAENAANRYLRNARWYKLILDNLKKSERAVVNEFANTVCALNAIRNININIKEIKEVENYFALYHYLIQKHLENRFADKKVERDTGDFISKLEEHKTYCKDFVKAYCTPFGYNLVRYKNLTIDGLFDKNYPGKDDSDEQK
Assay: crRNA (strand 1, pre-loaded); Mg2+; 40 mM Tris-HCl pH 7.5, 150 mM NaCl, 6 mM MgCl2, 1 mM DTT, 0.1% Tween-20, 0.2 mg/ml BSA; 25 C; 10 min per concentration, then washed
Settings: tags: His6-TwinStrep-SUMO cleaved; N-terminal SNAP kept (SNAP-Surface 488); label: 3' end held by stalled T7 RNA polymerase
So I've got a bunch of binders here, and I need their pKd values.
Would you please state pKd, meaning minus log10 of the concentration in mol/L, as a bare number?

pKd for target 2 MT 5'PFS UGU 3'PFS UUU (mixed) RNA 1: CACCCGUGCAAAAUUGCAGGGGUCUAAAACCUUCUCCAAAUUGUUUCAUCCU RNA 2: GGGAAUGGAUCCACAUCUACGAAUUCUGUAGGAUGAAACAAUUUGGAGAAGUUUAGAUCGGAAGAGCACACGU is 7.30

Per the records, this binder ( target 3 insA 3' of 3,insA 3' of 2 (mixed) RNA 1: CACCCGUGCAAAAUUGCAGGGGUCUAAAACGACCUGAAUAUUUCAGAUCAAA RNA 2: GGGAAUGGAUCCACAUCUACGAAUUCGUUUUUGAUCUGAAAUAUUCAGGAUACUGCAGAUCGGAAGAGCACACGU ) has pKd equal to 7.58

The binder identified as target 1 insC 3' of 22,insC 3' of 20 (mixed) RNA 1: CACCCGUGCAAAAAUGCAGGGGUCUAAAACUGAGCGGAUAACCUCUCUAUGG RNA 2: GGGAAUGGAUCCACAUCUACGAAUUCGUACCCACUAGAGAGGUUAUCCGCUCACCGAGAUCGGAAGAGCACACGU registered its pKd at 7.88

Short answer for target 2 MT 5'PFS AGG 3'PFS CUC (mixed) RNA 1: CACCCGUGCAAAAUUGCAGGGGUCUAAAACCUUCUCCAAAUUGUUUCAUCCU RNA 2: GGGAAUGGAUCCACAUCUACGAAUUCAGGAGGAUGAAACAAUUUGGAGAAGCUCAGAUCGGAAGAGCACACGU : pKd was 8.03

Measured pKd, target 3 insA 3' of 6,insC 3' of 3 (mixed) RNA 1: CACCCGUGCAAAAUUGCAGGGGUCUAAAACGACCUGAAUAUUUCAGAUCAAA RNA 2: GGGAAUGGAUCCACAUCUACGAAUUCGUUUUUGAUCUGAAAUAUUCAAGGCUCUGCAGAUCGGAAGAGCACACGU : 8.11

For target 2 MT 5'PFS CUG 3'PFS UUU (mixed) RNA 1: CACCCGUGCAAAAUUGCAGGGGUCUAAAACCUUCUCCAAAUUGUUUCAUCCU RNA 2: GGGAAUGGAUCCACAUCUACGAAUUCCUGAGGAUGAAACAAUUUGGAGAAGUUUAGAUCGGAAGAGCACACGU the binder record lists pKd as 8.26

For reference, reported pKd for target 1 insG 3' of 20,insU 3' of 7 (mixed) RNA 1: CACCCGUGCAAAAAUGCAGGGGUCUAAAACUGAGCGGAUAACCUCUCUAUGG RNA 2: GGGAAUGGAUCCACAUCUACGAAUUCGUACCAGUAGAGAGGUUAUCUCGCUCACCGAGAUCGGAAGAGCACACGU stands at 7.05

GET /value?item= target 1 complement block 1-4 (mixed) RNA 1: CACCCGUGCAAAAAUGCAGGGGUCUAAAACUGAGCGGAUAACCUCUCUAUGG RNA 2: GGGAAUGGAUCCACAUCUACGAAUUCGUACCAUAGAGAGGUUAUCCGGAGUCCGAGAUCGGAAGAGCACACGU &field=pKd returns 8.26

Consider target 1 C7U,U10C (mixed) RNA 1: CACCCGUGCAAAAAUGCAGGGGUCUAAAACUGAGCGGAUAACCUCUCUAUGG RNA 2: GGGAAUGGAUCCACAUCUACGAAUUCGUACCAUAGAGAGGUCAUUCGCUCACCGAGAUCGGAAGAGCACACGU . Its measured pKd is 7.68

// field: pKd; key: target 3 complement block 1-6 (mixed) RNA 1: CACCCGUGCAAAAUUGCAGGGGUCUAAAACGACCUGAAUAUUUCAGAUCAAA RNA 2: GGGAAUGGAUCCACAUCUACGAAUUCGUUUUUGAUCUGAAAUAUUGUCCAGUGCAGAUCGGAAGAGCACACGU ; value = 7.55

The recorded pKd for target 1 insU 3' of 20,insG 3' of 8 (mixed) RNA 1: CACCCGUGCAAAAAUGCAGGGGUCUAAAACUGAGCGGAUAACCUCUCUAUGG RNA 2: GGGAAUGGAUCCACAUCUACGAAUUCGUACCAUUAGAGAGGUUAUGCCGCUCACCGAGAUCGGAAGAGCACACGU is 7.69

So for target 1 insA 3' of 17,insU 3' of 12 (mixed) RNA 1: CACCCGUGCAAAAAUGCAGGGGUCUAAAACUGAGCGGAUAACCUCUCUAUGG RNA 2: GGGAAUGGAUCCACAUCUACGAAUUCGUACCAUAGAAGAGGUUUAUCCGCUCACCGAGAUCGGAAGAGCACACGU , the logged pKd turned out to be 7.98

// sample target 1 U10C,A16C (mixed) RNA 1: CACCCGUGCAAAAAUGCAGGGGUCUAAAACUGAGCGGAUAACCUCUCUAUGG RNA 2: GGGAAUGGAUCCACAUCUACGAAUUCGUACCAUAGCGAGGUCAUCCGCUCACCGAGAUCGGAAGAGCACACGU , its pKd was 7.02

get_value(item= target 2 MT 5'PFS AAG 3'PFS CAG (mixed) RNA 1: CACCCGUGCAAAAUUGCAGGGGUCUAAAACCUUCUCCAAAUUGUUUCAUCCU RNA 2: GGGAAUGGAUCCACAUCUACGAAUUCAAGAGGAUGAAACAAUUUGGAGAAGCAGAGAUCGGAAGAGCACACGU , readout=pKd) returns 8.38

Just for reference, paper PMC10786891 is where these values come from.
